Assay: Toxicokinetic evaluation, plasma exposure in rats (LC-MS)
Type: in vivo, rat
Details: both sexes, Sprague-Dawley, rat, plasma, po, 10 mg/kg, day 1, 30 min after the first application, 10 mg/kg PO

{"columns": ["molecule", "result.units", "concentration at 30 min"],
 "data": [
  ["CCn1c(=O)[nH]c(=O)c2c1nc(Cc1cn3cc(C)sc3n1)n2CC1COC1 [TPT-004]", "ng/mL", 902]
]}

###

Experiment: Toxicokinetic evaluation, plasma exposure in rats (LC-MS)
Type: in vivo, rat
Conditions: both sexes, Sprague-Dawley, rat, plasma, po, 10 mg/kg, day 8, 30 min after the 15th application, 10 mg/kg BID PO

{"columns": ["smiles.string", "result.units", "concentration at 30 min"],
 "data": [
  ["CCn1c(=O)[nH]c(=O)c2c1nc(Cc1cn3cc(C)sc3n1)n2CC1COC1", "ng/mL", 877]
]}

###

Documented pIC50 across a set of compounds
Biological target: human recombinant PAH (Homo sapiens)
Construct: expression vectors for full-length human PAH (UniProt entry P00439); made in house; host or cells: E. coli T7 Express (NEB) with pRARE2
Sequence (P00439 1-452): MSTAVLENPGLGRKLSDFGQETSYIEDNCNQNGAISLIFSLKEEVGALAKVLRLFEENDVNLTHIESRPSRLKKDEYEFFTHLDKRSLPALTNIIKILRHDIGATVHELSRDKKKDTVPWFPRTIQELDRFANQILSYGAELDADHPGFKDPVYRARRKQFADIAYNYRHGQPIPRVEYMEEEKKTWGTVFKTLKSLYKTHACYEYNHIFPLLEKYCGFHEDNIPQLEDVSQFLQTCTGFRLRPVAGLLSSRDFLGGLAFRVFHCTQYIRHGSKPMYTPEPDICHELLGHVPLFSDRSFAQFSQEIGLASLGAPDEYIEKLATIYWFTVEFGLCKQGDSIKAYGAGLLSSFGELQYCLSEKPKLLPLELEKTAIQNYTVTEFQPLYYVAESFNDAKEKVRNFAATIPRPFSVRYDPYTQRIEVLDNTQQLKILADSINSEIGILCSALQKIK
Assay: PAH enzymatic activity assay (fluorescence, 96-well)
Type: biochemical
Details: 10 nM to 30 μM; 175 μM L-Phe, 10 μM BH4
pIC50: −log10 of the molar value.

{"columns": ["smiles.string", "pIC50"],
 "data": [
  ["CCOC(=O)[C@@H](N)Cc1ccc(-c2cc(O[C@H](c3ccc(Cl)cc3-n3ccc(C)n3)C(F)(F)F)nc(N)n2)cc1", 5.10],
  ["Cc1ccn(-c2cc(Cl)ccc2[C@@H](Oc2cc(-c3ccc(C[C@H](N)C(=O)O)cc3)nc(N)n2)C(F)(F)F)n1", 5.57],
  ["CCn1c(=O)[nH]c(=O)c2c1nc(Cc1cn3cc(C)sc3n1)n2CC1COC1", 6.39]
]}

###

Target: human recombinant TPH2 (Homo sapiens, UniProt Q8IWU9)
Construct: Full-length human TPH1 and TPH2 (UniProt entries P17752 and Q8IWU9); MBP (N); made in house
Assay: TPH2 enzymatic activity assay (fluorescence, 96-well)
Assay type: biochemical
Details: supplementary CSV
pIC50: −log10 of the molar value.

{"columns": ["smiles.string", "pIC50"],
 "data": [
  ["CCn1c(=O)[nH]c(=O)c2c1nc(Cc1cn3cc(C)sc3n1)n2CC1COC1", 7.66]
]}

###

Assay: Toxicokinetic evaluation, plasma exposure in rats (LC-MS)
Assay type: in vivo, rat
Conditions: both sexes, Sprague-Dawley, rat, plasma, po, 45 mg/kg, day 8, 30 min after the 15th application, 45 mg/kg BID PO

{"columns": ["compound", "result.units", "concentration at 30 min"],
 "data": [
  ["CCn1c(=O)[nH]c(=O)c2c1nc(Cc1cn3cc(C)sc3n1)n2CC1COC1 [TPT-004]", "ng/mL", 5040]
]}

###

Assay: Toxicokinetic evaluation, plasma exposure in rats (LC-MS)
Type: in vivo, rat
Conditions: both sexes, Sprague-Dawley, rat, plasma, po, 45 mg/kg, day 1, 30 min after the first application, 45 mg/kg PO

{"columns": ["smiles.string", "concentration at 30 min [ng/mL]"],
 "data": [
  ["CCn1c(=O)[nH]c(=O)c2c1nc(Cc1cn3cc(C)sc3n1)n2CC1COC1", 4720]
]}

###

Experiment: Toxicokinetic evaluation, plasma exposure in rats (LC-MS)
Format: in vivo, rat
Details: both sexes, Sprague-Dawley, rat, plasma, po, 200 mg/kg, day 8, 30 min after the 15th application, 200 mg/kg BID PO

{"columns": ["smiles.string", "concentration at 30 min"],
 "data": [
  ["CCn1c(=O)[nH]c(=O)c2c1nc(Cc1cn3cc(C)sc3n1)n2CC1COC1", "14400 ng/mL"]
]}

###

Molecular target: human recombinant TPH2 (Homo sapiens)
Construct: Full-length human TPH1 and TPH2 (UniProt entries P17752 and Q8IWU9); MBP (N); made in house
Sequence (Q8IWU9 1-490): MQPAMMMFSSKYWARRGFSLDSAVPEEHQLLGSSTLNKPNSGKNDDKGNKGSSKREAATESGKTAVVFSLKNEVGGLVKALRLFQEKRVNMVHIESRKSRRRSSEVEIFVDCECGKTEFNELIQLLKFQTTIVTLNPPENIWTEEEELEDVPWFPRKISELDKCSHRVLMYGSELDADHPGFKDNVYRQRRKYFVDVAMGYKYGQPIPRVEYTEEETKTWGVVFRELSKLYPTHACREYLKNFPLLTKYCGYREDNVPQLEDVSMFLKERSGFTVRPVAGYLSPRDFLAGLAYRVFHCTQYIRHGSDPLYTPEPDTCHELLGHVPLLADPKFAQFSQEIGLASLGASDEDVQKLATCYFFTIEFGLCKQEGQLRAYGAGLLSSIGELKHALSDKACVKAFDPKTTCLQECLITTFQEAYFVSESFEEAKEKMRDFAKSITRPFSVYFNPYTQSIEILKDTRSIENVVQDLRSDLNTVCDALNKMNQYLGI
Experiment: TPH2 enzymatic activity assay (fluorescence, 96-well)
Assay type: biochemical
Settings: 3 nM to 10 μM; 30 μM L-Trp, 7.5 μM BH4
pIC50: −log10 of the molar value.

{"columns": ["compound", "pIC50"],
 "data": [
  ["CCn1c(=O)[nH]c(=O)c2c1nc(Cc1cn3cc(C)sc3n1)n2CC1COC1 [TPT-004]", 7.66]
]}

###

Biological target: human recombinant PAH (Homo sapiens)
Construct: expression vectors for full-length human PAH (UniProt entry P00439); made in house; host or cells: E. coli T7 Express (NEB) with pRARE2
Assay: PAH enzymatic activity assay (fluorescence, 96-well)
Type: biochemical
Conditions: supplementary CSV

{"columns": ["smiles.string", "IC50, nM"],
 "data": [
  ["CCn1c(=O)[nH]c(=O)c2c1nc(Cc1cn3cc(C)sc3n1)n2CC1COC1", 404],
  ["Cc1ccn(-c2cc(Cl)ccc2[C@@H](Oc2cc(-c3ccc(C[C@H](N)C(=O)O)cc3)nc(N)n2)C(F)(F)F)n1", 2690],
  ["CCOC(=O)[C@@H](N)Cc1ccc(-c2cc(O[C@H](c3ccc(Cl)cc3-n3ccc(C)n3)C(F)(F)F)nc(N)n2)cc1", 7910]
]}

###

Target: human recombinant TPH1 (Homo sapiens, UniProt P17752)
Construct: Full-length human TPH1 and TPH2 (UniProt entries P17752 and Q8IWU9); MBP (N); made in house
Experiment: TPH1 enzymatic activity assay (fluorescence, 96-well)
Format: biochemical
Conditions: 3 nM to 10 μM; 15 μM L-Trp, 20 μM BH4

{"columns": ["smiles.string", "IC50 [nM]"],
 "data": [
  ["CCn1c(=O)[nH]c(=O)c2c1nc(Cc1cn3cc(C)sc3n1)n2CC1COC1", 33.4],
  ["CCOC(=O)[C@@H](N)Cc1ccc(-c2cc(O[C@H](c3ccc(Cl)cc3-n3ccc(C)n3)C(F)(F)F)nc(N)n2)cc1", 1440]
]}

###

Biological target: human recombinant TPH1 (Homo sapiens)
Construct: Full-length human TPH1 and TPH2 (UniProt entries P17752 and Q8IWU9); MBP (N); made in house
Sequence (P17752 1-444): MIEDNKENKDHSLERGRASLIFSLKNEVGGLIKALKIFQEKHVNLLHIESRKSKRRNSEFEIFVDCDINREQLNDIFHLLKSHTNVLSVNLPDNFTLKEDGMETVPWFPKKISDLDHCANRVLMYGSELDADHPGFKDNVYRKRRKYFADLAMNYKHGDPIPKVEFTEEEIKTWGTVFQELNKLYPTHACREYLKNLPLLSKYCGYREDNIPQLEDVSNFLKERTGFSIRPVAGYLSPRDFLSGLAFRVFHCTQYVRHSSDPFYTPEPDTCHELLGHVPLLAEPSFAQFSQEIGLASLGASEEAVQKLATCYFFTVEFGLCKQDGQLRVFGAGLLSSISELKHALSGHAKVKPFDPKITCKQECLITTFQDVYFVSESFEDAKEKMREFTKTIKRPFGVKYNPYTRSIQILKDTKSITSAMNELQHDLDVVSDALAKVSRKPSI
Assay: TPH1 enzymatic activity assay (fluorescence, 96-well)
Format: biochemical
Settings: supplementary CSV
pIC50: −log10 of the molar value.
endpoint: pIC50

{"columns": ["smiles.string", "measured"],
 "data": [
  ["CCn1c(=O)[nH]c(=O)c2c1nc(Cc1cn3cc(C)sc3n1)n2CC1COC1", 7.48]
]}

Numbers sourced from paper PMC12171880.
